Tested on: ATP;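 further: ATP exposure 15 min at 22 °C before imaging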
measurement.notes: switch fluorescence ratio, 500 uM ATP over buffer (Cy3 cluster intensity, sum of 5 cycles each) (fold (ratio)); higher = stronger signal-on switching upon ATP binding; sequences stand for … in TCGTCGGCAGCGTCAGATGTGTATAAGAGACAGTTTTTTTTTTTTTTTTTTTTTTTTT…TC
measurement.conditions: aptamer strand: ATP DNA aptamer (quencher-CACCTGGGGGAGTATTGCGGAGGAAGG + anchor), 100 nM annealed; ATP concentration: 500 uM
Please enter yes (1) where switch fluorescence ratio is greater than or equal to 1, and no (0) where it is lower.

AAGCAGGGGC ... yes (1)
TTTAGGCATT ... yes (1)
CATCGAGGAC ... yes (1)
ATTTAAAGGT ... no (0)

###

Test system: ATP;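 further: ATP exposure 15 min at 22 °C before imaging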
measurement.notes: switch fluorescence ratio, 500 uM ATP over buffer (Cy3 cluster intensity, sum of 5 cycles each) (fold (ratio)); higher = stronger signal-on switching upon ATP binding; sequences stand for … in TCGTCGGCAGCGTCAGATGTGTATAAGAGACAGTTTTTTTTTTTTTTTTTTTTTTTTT…TC
measurement.conditions: aptamer strand: ATP DNA aptamer (quencher-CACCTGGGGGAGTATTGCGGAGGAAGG + anchor), 100 nM annealed; ATP concentration: 500 uM
Please enter t where switch fluorescence ratio is greater than or equal to 1, and f where it is lower.

CGACGGGGCT ... t
CGGGGGCCGT ... f
AGGCCTGCGG ... t

###

Tested on: ATP;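 further: ATP exposure 15 min at 22 °C before imaging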
measurement.notes: switch fluorescence ratio, 500 uM ATP over buffer (Cy3 cluster intensity, sum of 5 cycles each) (fold (ratio)); higher = stronger signal-on switching upon ATP binding; sequences stand for … in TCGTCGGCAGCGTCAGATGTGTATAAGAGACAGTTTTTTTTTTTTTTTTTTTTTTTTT…TC
measurement.conditions: aptamer strand: ATP DNA aptamer (quencher-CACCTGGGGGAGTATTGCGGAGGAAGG + anchor), 100 nM annealed; ATP concentration: 500 uM
test.readout: switch fluorescence ratio

ATTTCTTGGT ... 0.975
CCTTGCAGAT ... 1.99
ATCGGAGCCA ... 1.02
TCTGATAGTT ... 0.998
AATGATTGGA ... 1.02
TAGTGGGGGC ... 1.01
AGATAAACTC ... 1.03
TTGATATTTG ... 1.01
GTTGAATTGG ... 0.985
CGATTCGGTG ... 0.97
GGGGTACGTT ... 1
ACGACTTTGT ... 1.02
GTTGTTTACC ... 1.02
TGGGAGGGTA ... 0.982
GGCTGTTAAG ... 0.983
GAGATAGTTT ... 0.995
ATTCAATCGA ... 1.02
AGGATCGGCG ... 0.977
AAGTTTTGTT ... 0.987
GGGGGTGCAG ... 0.975
ATTGAGGGAG ... 1
ACTGTGTTTG ... 0.991
AAGCATAGGG ... 1.02
GTTTCATATC ... 1.02
CAGTTGTTTT ... 1.02
AAGATAGCGG ... 0.998
GATTTCCAGG ... 1.2
AGGTTCATTA ... 1.01
TCAGTGGGGG ... 0.97
TTTATCACCT ... 1.14
TGGCTTGTTT ... 0.99
TTTGTTGTCA ... 0.974
AATGGAAATT ... 0.996
TCGGCCGGGG ... 1.02
ATGTAGAGGT ... 0.98
TAGGTATGCG ... 1.18
TTTTGGTTGG ... 0.971
AGATGTTCGG ... 0.975
TCAAGGGCAG ... 1.03
AAAATGGGGG ... 1
AAAGAGTGCG ... 1
TCGTTGCGT ... 1.01
AGAAGGGACG ... 0.973
ATTGAACAT ... 0.984
CCTATGGCGG ... 1.07
AACAATTGGG ... 0.978
TTCGCCAATG ... 1.07
TTCAATATGT ... 0.991
ATGGGACATT ... 1.03
CGGTGTTTGG ... 0.972
AAATCTCGGA ... 1.2
TTTTCTGTTC ... 0.988
GGTCTAGAGT ... 1
CGTCTTAGTT ... 0.993
GTCTTATTTA ... 0.976
CGGCTAGACG ... 0.999
CATTGAGTAG ... 1.01
AAGGGATTCT ... 1.03
GCAGTATACC ... 1.15
TGTGTTGGTG ... 1.02
CCCCAGGGGG ... 3.38
TGCCGTAGGG ... 1.04
AAGAGGGGTT ... 1.03
TTTGATATGT ... 0.996
TTTTATTGTT ... 1.01
CACGCTTTTT ... 1.15
CGAATCGGTG ... 1.01
GACGGGGAAA ... 1.01
GGACACGGTA ... 1.12
GGGTATGTGA ... 0.961
GCTCCTGTGC ... 1.2
TTATTATAGT ... 1
GGGGGGCCCA ... 1.02
GGCATACGTT ... 0.994
ATAGAGCTTT ... 1.07
TCTGGGGGT ... 0.949
ACTTACTTT ... 1.16
TTAAAGGGGC ... 1.03
ACGTGTGGGA ... 1.04
TTAGTGAAGG ... 1.01
CGGTAGTCGA ... 1.02
CGCATGATGT ... 1.03
AAGGTTTCGG ... 0.985
CCAGTAGGTC ... 1.03
AATTAACGGC ... 1.07
TTGAGATAAG ... 0.982

###

List of switch fluorescence ratio values.
Tested on: ATP;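 further: ATP exposure 15 min at 22 °C before imaging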
measurement.notes: switch fluorescence ratio, 500 uM ATP over buffer (Cy3 cluster intensity, sum of 5 cycles each) (fold (ratio)); higher = stronger signal-on switching upon ATP binding; sequences stand for … in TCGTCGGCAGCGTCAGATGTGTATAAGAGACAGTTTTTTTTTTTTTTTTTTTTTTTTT…TC
measurement.conditions: aptamer strand: ATP DNA aptamer (quencher-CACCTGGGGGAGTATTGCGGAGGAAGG + anchor), 100 nM annealed; ATP concentration: 500 uM
test.readout: switch fluorescence ratio

GGAAGATGTG ... 1.02
AAGGAGGCTT ... 1.05
TCGGGGGAGC ... 0.984
TTTTTTGCAT ... 1.07
TTGGGAAAGA ... 1.21
TGGGGAGAAG ... 0.994
TCTTGGACGG ... 0.985
TAGAACGTCG ... 0.98
GGGGTTATGT ... 0.979
TCCGGGATGG ... 1.33
AGAGGAGGGT ... 1.01
TTGTTAAATG ... 1.02
TAGTGGGGTA ... 0.98
TCTTAGTAGT ... 0.986
GCTGGGAAGG ... 0.978
TTTGGATAGA ... 0.998
AGTGGCGTTC ... 1.01
GAATTTTATG ... 0.955
AATGGGGTAA ... 0.995
GGGTGATCCT ... 1.02
CATCAAGGGA ... 1.02
TCAGTTCTTC ... 0.989
CTTGTAACCT ... 1.8
CTTTATAGGA ... 0.994
ACGTAACATA ... 1.22
TGCAATTACT ... 3.21
CGCCTTGGGG ... 1
TGTAATGTGA ... 1.07
TTTTCCTTTC ... 1.21
GGGGGCGGTG ... 1
GTTGTAAGG ... 1.02
GGTAGGCGAA ... 0.977
GACTCGGTGC ... 1.05
TTATTGTGCT ... 0.983
AAAAAGTTGT ... 1
ATCCTTGTTG ... 0.965
GCGTAGAATC ... 1.02
TTACTTAGGT ... 1.03
CTAGATTCGC ... 0.984
TTAAGATTCT ... 0.993
AGAGTACTCG ... 1.05
ATTTGGTTA ... 0.993
TATTTTTTGT ... 1.01
AGTTTCCGGA ... 0.992
AGTAGGGGTT ... 0.979
TCAATGAAGC ... 0.988
ACTAATAAGT ... 0.999
AATGGGATGT ... 0.981
GAAATGGCGT ... 0.986
CATGGATAGG ... 1.01
CACGCGGGGA ... 1.01
TTCGCGCGGT ... 1.04
CCTAACTTAG ... 1.02
GCATTAAAGG ... 0.981
GGTGCAAGCT ... 1.02
TCTGTATGTA ... 1.01
TTGATCGTGC ... 1.12
TCATAAGTGC ... 0.977
TTAATGTT ... 1.02
TTACATTT ... 1.02
GGGGGTTATA ... 0.965
GCTTGCGGGG ... 0.977
AGATTCCGGT ... 0.976
AATCATGTAG ... 1.01
AAGATCATTG ... 0.98
ATATAACATT ... 1.05
CAGGATAAAT ... 0.979
GAAAAAGCCC ... 1.04
TAGAAATGAT ... 0.987
AAAGCCTGGG ... 0.966
TCTGTTTTTT ... 0.989
AGGTAGGCGG ... 0.969
TTGGGGCGCG ... 0.989
GTGGCATTTT ... 1.01
GTTATTCCAA ... 1.03
GGGTCCTACG ... 1.12
GTTTTTAGGT ... 0.98
TTCGTTATAC ... 2.29
TTATTTGAAT ... 1.01
CGGAGTTATG ... 1.09
CATGCGTCGA ... 1.04
GGGGCAGGGA ... 0.98
ATGTTCATGG ... 0.99
GGTTAAGCTT ... 1.01
ACAGCTGTTA ... 1.02
TGTAGTCCGT ... 0.982
